test system: Muscarinic acetylcholine receptor M1 (Homo sapiens) (UniProt P11229)
experiment notes: Displacement of [3H]-NMS from human muscarinic M1 acetylcholine receptor expressed CHO cells after 4 hrs by scintillation counting
Type: cell-based
readout type: pKb
Give bare numbers.

Example results:
Recorded pKb for CC(C)(C)OC(=O)N1CCC(Cn2cc(C(=O)O)c(=O)c3ccccc32)CC1 with Muscarinic acetylcholine receptor M1 (Homo sapiens) (UniProt P11229), please? 4.7

Fill in the recorded pKb for this compound, with Muscarinic acetylcholine receptor M1 (Homo sapiens) (UniProt P11229) as test system: CCOC(=O)c1cn(Cc2ccc(-c3ccccc3)cc2)c2cccc(OC)c2c1=O 5.16

Next:
Can you look up pKb on Muscarinic acetylcholine receptor M1 (Homo sapiens) (UniProt P11229) for COc1ccc(Cn2cc(C(=O)N[C@H]3CCCC[C@@H]3O)c(=O)c3c(F)ccc(F)c32)cc1 ? 4.99

====

test system: Muscarinic acetylcholine receptor M1 (Homo sapiens)
Sequence (whole entry): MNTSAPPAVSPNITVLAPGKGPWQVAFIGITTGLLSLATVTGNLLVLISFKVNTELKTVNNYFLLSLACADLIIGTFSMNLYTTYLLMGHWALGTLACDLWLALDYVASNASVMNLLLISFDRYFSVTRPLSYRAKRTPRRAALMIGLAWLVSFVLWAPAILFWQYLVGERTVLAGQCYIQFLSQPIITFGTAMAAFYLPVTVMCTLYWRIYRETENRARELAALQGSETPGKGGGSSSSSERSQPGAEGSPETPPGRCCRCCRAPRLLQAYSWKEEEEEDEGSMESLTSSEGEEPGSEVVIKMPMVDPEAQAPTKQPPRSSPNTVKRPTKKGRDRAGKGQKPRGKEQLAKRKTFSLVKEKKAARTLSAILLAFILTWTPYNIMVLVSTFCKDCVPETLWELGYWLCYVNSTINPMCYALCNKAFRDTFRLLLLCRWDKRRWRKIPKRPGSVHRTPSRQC
experiment notes: Displacement of [3H]-NMS from human muscarinic M1 acetylcholine receptor expressed CHO cells after 4 hrs by scintillation counting
Format: cell-based
So I've got a bunch of molecules here, and I need their pKb values.
Numbers only.

Below, each entry is followed by its recorded pKb result.
pKb for CCOC(=O)c1cn(Cc2ccc(OC)cc2)c2c(F)ccc(F)c2c1=O ? 5.12

Value lookup for pKb; key = COc1ccc(Cn2cc(C(=O)N(C)C)c(=O)c3c(F)ccc(F)c32)cc1 4.48

Requested field: pKb. Item: COc1ccc(Cn2cc(C(=O)N3CCOCC3)c(=O)c3c(F)ccc(F)c32)cc1 4.97

What does the data say about its pKb? Entry: O=C(O)c1cn(Cc2ccccc2-c2ccccc2)c2c(F)ccc(F)c2c1=O 5

Others:
Requested field: pKb. Item: O=C(O)c1cn(Cc2cccc(-c3ccccc3)c2)c2c(F)ccc(F)c2c1=O 5.55

====

test system: UniProt:P11229
experiment notes: Displacement of [3H]-NMS from human muscarinic M1 acetylcholine receptor expressed CHO cells after 4 hrs by scintillation counting
Assay type: cell-based
I'd be grateful if you could share measured pKb for these entries.
Give bare numbers.

Find the recorded pKb belonging to COc1ccc(Cn2cc(-c3nnn[nH]3)c(=O)c3c(F)ccc(F)c32)cc1 and report it. 4.97

Fill in: pKb of COc1ccc(-n2cc(C(=O)O)c(=O)c3ccccc32)cc1 is ___ 4.65

# input compound: CNC(=O)c1cn(Cc2ccc(OC)cc2)c2c(F)ccc(F)c2c1=O ; wanted: its pKb 4.92

Which pKb value is on record for O=C(O)c1cn(-c2ccc(-c3ccccc3)cc2)c2ccccc2c1=O ? 4.73

Quick one: give me pKb for each item below, same order please.
1. COc1ccc(Cn2cc(C(N)=O)c(=O)c3c(F)ccc(F)c32)cc1
2. CCOC(=O)c1cn(Cc2ccc(-c3ccccc3)cc2)c2c(OC)ccc(F)c2c1=O

[5.17, 5.32]

Could I get pKb for every one of these entries?
1. NCC#Cc1ccc(Cn2cc(C(=O)O)c(=O)c3c(F)ccc(F)c32)cc1
2. COc1ccc(Cn2cc(C(=O)O)c(=O)c3c(OC)cccc32)cc1
3. O=C(O)c1cn(CC2CCN(Cc3ccccc3)CC2)c2ccccc2c1=O
4. CCOC(=O)c1cn(Cc2ccc(-c3ccccc3)cc2)c2c(F)ccc(F)c2c1=O

1. 4.96
2. 4.62
3. 5.13
4. 3.75
